- system under test: Androgen receptor (Homo sapiens) (UniProt P10275)
- Sequence (P10275 whole entry, looked up): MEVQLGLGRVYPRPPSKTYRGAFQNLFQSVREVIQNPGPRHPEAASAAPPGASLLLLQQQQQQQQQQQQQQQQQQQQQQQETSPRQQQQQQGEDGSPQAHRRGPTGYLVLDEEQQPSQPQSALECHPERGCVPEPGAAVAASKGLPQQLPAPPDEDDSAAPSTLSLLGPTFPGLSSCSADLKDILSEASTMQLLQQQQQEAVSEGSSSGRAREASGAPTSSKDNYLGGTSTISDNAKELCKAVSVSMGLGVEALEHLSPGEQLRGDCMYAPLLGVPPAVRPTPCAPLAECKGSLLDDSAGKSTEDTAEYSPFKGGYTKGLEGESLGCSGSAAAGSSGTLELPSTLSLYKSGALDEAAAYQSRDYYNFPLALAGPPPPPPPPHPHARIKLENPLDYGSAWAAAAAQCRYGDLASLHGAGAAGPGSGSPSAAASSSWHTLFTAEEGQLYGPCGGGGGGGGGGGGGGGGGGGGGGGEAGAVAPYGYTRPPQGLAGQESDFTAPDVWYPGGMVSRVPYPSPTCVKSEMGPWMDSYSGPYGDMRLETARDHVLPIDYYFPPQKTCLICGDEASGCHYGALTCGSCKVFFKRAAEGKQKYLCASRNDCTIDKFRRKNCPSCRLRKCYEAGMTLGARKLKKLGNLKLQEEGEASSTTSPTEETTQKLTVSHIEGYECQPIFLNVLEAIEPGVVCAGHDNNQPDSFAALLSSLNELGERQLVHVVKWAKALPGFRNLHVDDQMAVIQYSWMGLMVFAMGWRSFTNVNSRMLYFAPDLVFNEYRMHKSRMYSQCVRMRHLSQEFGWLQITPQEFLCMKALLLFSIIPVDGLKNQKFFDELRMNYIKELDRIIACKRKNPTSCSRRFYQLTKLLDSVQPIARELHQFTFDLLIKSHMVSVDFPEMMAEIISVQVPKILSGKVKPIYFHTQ
- method: qHTS assay to identify small molecule antagonists of the androgen receptor (AR) signaling pathway using the MDA cell line in the presence of 0.5 nM R1881 (AID 1259243); further: nearly all actives have a fitted effect of over 50% in size
- measurement parameters: MDA-kb2 MMTV-luciferase, R1881 0.5 nM, 16 h; series mostly up to 92.4 µM
Inconclusive results are not listed. The source made the active and inactive calls. The call rests on the fitted dose curve; in most records, active means well fitted inhibition curve with a large enough effect in the repeat runs; inconclusive means weak or mixed curves; inactive means no such curve, though single readings can be large or run the other way.
Your answer must be one of the following: 1 for active, -1 for inactive

1. Oc1cc(Cl)c(Cl)c(Cl)c1 : 1
2. CC(C)(O)c1cnn2c(-c3ccc(F)c(-c4c(F)cccc4C#N)c3)cnc2n1 : 1
3. c1ccc2cc3c(cc2c1)-c1cccc2cccc-3c12 : 1
4. N#CSCSC#N : 1
5. Nc1c(Oc2ccccc2)cc(O)c2c1C(=O)c1ccccc1C2=O : -1

Prompt line: What is the recorded call for this molecule in the test? O=C(CCl)Nc1ccccc1
Response line: 1

Prompt line: How was C=COCCCl classified in this test?
Response line: -1

Prompt line: Test call for this molecule, please: O=[N+]([O-])c1ccc2ccc3cccc4ccc1c2c34
Response line: 1

Prompt line: Dear all, I need the recorded test outcome for N#CCCO , thank you.
Response line: -1

Prompt line: For this molecule, state the assay outcome: CC(C)(C)OO
Response line: -1

Prompt line: I'd appreciate the recorded outcome for CC(C)CBr from this test.
Response line: -1

* * *

- method: qHTS assay to identify small molecule antagonists of the androgen receptor (AR) signaling pathway using the MDA cell line in the presence of 0.5 nM R1881 - cell viability counter screen (AID 1259242); further: nearly all actives have a fitted effect of over 45% in size
- measurement parameters: MDA-kb2 viability, CellTiter-Fluor protease fluorescence, 16 h; series mostly up to 92.4 µM
Results filed as inconclusive are left out. Active and inactive are the calls of the source. Calls come from the whole dose curve; as a rule, active = well fitted cell-killing curve with a large enough effect in the repeat runs; inconclusive = weak or mixed curves, or effect the other way; inactive = flat fitted curve, though single readings scatter.
# valid calls are yes (active), no (inactive); nothing else

# example entries with known answers
1) ClC(Cl)=C(c1ccc(Cl)cc1)c1ccc(Cl)cc1 : no
2) C[C@]12CC[C@H]3[C@@H](CCC4=CC(=O)CC[C@@]43C)[C@@H]1CC[C@@H]2O : no
3) Cc1cc(C(F)(C(F)(F)F)C(F)(F)F)ccc1NC(=O)c1cccc(I)c1C(=O)NC(C)(C)CS(C)(=O)=O : no
4) O=C(CCCN1CCC2(CC1)C(=O)NCN2c1ccccc1)c1ccc(F)cc1 : no
5) CCCN(CCC)CCc1c[nH]c2ccccc12 : no
6) Nc1ccc(Sc2ccc(N)cc2)cc1 : no
7) CC1(c2ccc(Oc3ccccc3)cc2)OC(=O)N(Nc2ccccc2)C1=O (configuration not stated) : yes
8) N#CCc1ccc(Cl)cc1 : no

Prompt line: Status in this test for CCOP(=S)(OCC)SCCS(=O)(=O)CC ?
Response line: no

Prompt line: Record lookup: outcome of this test for CNC(C)Cc1ccc2c(c1)OCO2 (configuration not stated) ?
Response line: no

Prompt line: GET /call?item= ClC1=C(Cl)C2(Cl)C3C(Cl)C=CC3C1(Cl)C2(Cl)Cl (configuration not stated) returns the recorded outcome of this test.
Response line: no

Prompt line: Recorded call for C=COCCCl ?
Response line: no

* * *

- system under test: Luciferin 4-monooxygenase (Photinus pyralis)
- method: qHTS assay to identify small molecule inhibitors of firefly luciferase (AID 1224835); further: nearly all actives have a fitted effect of over 25% in size
- measurement parameters: purified P. pyralis luciferase, luminescence inhibition; series mostly up to 115 µM
Records with an inconclusive call do not appear. Calls of active or inactive are those of the source. Calls come from the whole dose curve; as a rule, active = well fitted inhibition curve with a large enough effect in the repeat runs; inconclusive = weak or mixed curves; inactive = flat fitted curve, though single readings scatter.
Write down the outcome that applies. Available outcomes: 1.0 for active, 0.0 for inactive

Prompt line: For this molecule, state the assay outcome: COCC(=O)N(c1c(C)cccc1C)[C@H](C)C(=O)OC
Response line: 0.0

Prompt line: GET /call?item= [Cl][Sn]([c]1ccccc1)([c]1ccccc1)[c]1ccccc1 returns the recorded outcome of this test.
Response line: 1.0

Prompt line: Call for entry Oc1ccc(C2(c3ccc(O)cc3)CCCCC2)cc1 :
Response line: 0.0

Prompt line: Tell me the recorded outcome of this test for N#CCc1ccc(Cl)cc1 .
Response line: 0.0

Prompt line: Field: outcome | Entry: O=[N+]([O-])c1cc(C(F)(F)F)c(Cl)c([N+](=O)[O-])c1Cl
Response line: 1.0

Prompt line: Given Oc1cccc(-c2ccccc2)c1 , state the outcome it received in this test.
Response line: 1.0

* * *

- method: qHTS assay to identify small molecule antagonists of the TGF-beta/Smad signaling pathway - cell viability counter screen (AID 1346824); further: nearly all actives have a fitted effect of over 50% in size
- measurement parameters: SBE-bla HEK293T viability, CellTiter-Glo luminescence; series mostly up to 76.8 µM
Inconclusive results are not listed. Active and inactive are the calls of the source. Calls come from the whole dose curve; as a rule, active = well fitted cell-killing curve with a large enough effect in the repeat runs; inconclusive = weak or mixed curves; inactive = flat fitted curve, though single readings scatter.
Parameter call: string, one of 1 (active), 0 (inactive)

Below are worked cases with known answers.
1) COc1ccc(OC)c(CC(C)N)c1 (stereo not given) : 0
2) Cl/C=C\CCl : 0
3) CCOC(=O)CC(=O)CCl : 0
4) C[C@@H]1CC[C@@]2(OC1)O[C@H]1[C@@H](O)[C@H]3[C@@H]4CC[C@H]5C[C@@H](O[C@@H]6O[C@H](CO)[C@H](O[C@@H]7O[C@H](CO)[C@@H](O)[C@H](O[C@@H]8OC[C@@H](O)[C@H](O)[C@H]8O)[C@H]7O[C@@H]7O[C@H](CO)[C@@H](O)[C@H](O[C@@H]8O[C@H](CO)[C@@H](O)[C@H](O)[C@H]8O)[C@H]7O)[C@H](O)[C@H]6O)[C@H](O)C[C@]5(C)[C@H]4CC[C@]3(C)[C@H]1[C@@H]2C : 1
5) CC(C)N1C(=O)N(c2ccccc2)CSC1=NC(C)(C)C : 0
6) Fc1ccc(Oc2ccnc3cc(Cl)cc(Cl)c23)cc1 : 0

Prompt line: In this assay, the call recorded for Oc1ccc(C2(c3ccc(O)cc3)CCCCC2)cc1 was what?
Response line: 0

Prompt line: Outcome? Clc1ccc(CCC(Cn2ccnc2)Sc2c(Cl)cccc2Cl)cc1 (stereo not given)
Response line: 0

Prompt line: Dear all, I need the recorded test outcome for Oc1cc(Cl)c(Cl)c(Cl)c1 , thank you.
Response line: 0

Prompt line: Dear colleague, could you share the recorded outcome for O=C(O)C1C2CCC(O2)C1C(=O)O (stereo not given) when you have a moment?
Response line: 0

* * *

- method: qHTS assay to identify small molecule antagonists of the estrogen receptor beta (ER-beta) signaling pathway - cell viability counter screen (AID 1259382); further: nearly all actives have a fitted effect of over 55% in size
- measurement parameters: ER-beta-UAS-bla HEK293T viability, CellTiter-Glo luminescence, 16 h; series mostly up to 92.4 µM
Records with an inconclusive call do not appear. Active and inactive are the calls of the source. The call rests on the fitted dose curve; in most records, active means well fitted cell-killing curve with a large enough effect in the repeat runs; inconclusive means weak or mixed curves; inactive means flat fitted curve, though single readings scatter.
Hi there, use one of these labels in your reply, thanks! Yes = active, No = inactive

Prompt line: Call for entry CCCCCCCCCC[N+](C)(C)CCCCCCCCCC :
Response line: Yes

* * *

- method: qHTS RealTime-Glo MT Cell Viability Assay in HepG2 cells - 32 hour (AID 1224877); further: nearly all actives have a fitted effect of over 55% in size
- measurement parameters: RealTime-Glo luminescence; series mostly up to 76.8 µM
Inconclusive results are not listed. Calls of active or inactive are those of the source. Calls follow the shape of the dose curve; as a rule, active = well fitted cell-killing curve with a large enough effect in the repeat runs; inconclusive = weak or mixed curves; inactive = flat fitted curve, though single readings scatter.
Pick from label 1 = active, label 0 = inactive when you respond.

1. C[CH2][Hg][N]1C(=O)C2C(C1=O)C1(Cl)C(Cl)=C(Cl)C2(Cl)C1(Cl)Cl (stereo unspecified) : label 1

Prompt line: # fetch the recorded call for BrC(Br)C(Br)(Br)Br here
Response line: label 0

Prompt line: What classification did Oc1ccc(C(c2ccc(O)cc2)(C(F)(F)F)C(F)(F)F)cc1 end up with in this test?
Response line: label 0

Prompt line: Just curious, what result did CN(C)CCc1c[nH]c2ccc(O)cc12 get here?
Response line: label 0

Prompt line: Outcome? Nc1ccccc1C(=O)OC/C=C/c1ccccc1
Response line: label 0

Prompt line: How was Cc1cc(C)cc(OP(=O)(Oc2cc(C)cc(C)c2)Oc2cc(C)cc(C)c2)c1 classified in this test?
Response line: label 0

Prompt line: For c1ccc2c(c1)[nH]c1cnccc12 , what call appears in the results of this test?
Response line: label 0

Prompt line: Any idea what this test logged for CC1(C)CN=C(NN=C(/C=C/c2ccc(C(F)(F)F)cc2)/C=C/c2ccc(C(F)(F)F)cc2)NC1 ?
Response line: label 1

Prompt line: Hey, what did the test say about N#CCCO ?
Response line: label 0

Prompt line: Hi, sorry to bother you, what did the test record for Nc1c(Oc2ccccc2)cc(O)c2c1C(=O)c1ccccc1C2=O ?
Response line: label 0

Prompt line: Identify the outcome logged in this assay for the compound shown: COC12CC[C@@]3(C[C@@H]1C(C)(O)C(C)(C)C)[C@H]1Cc4ccc(O)c5c4[C@@]3(CCN1CC1CC1)[C@H]2O5 (stereo partly specified)
Response line: label 1

Prompt line: Write down the call the test reported for this compound. Item: C[C@@H](Oc1ccc(Cl)cc1Cl)C(=O)O
Response line: label 0

Prompt line: Test call, this compound: COP(=S)(OC)Oc1cc(Cl)c(Br)cc1Cl
Response line: label 0

Prompt line: What did the test return for CN(CCCC(O)c1cccnc1)N=O (stereo unspecified) ?
Response line: label 0

Prompt line: Per the assay record, what outcome was assigned to CN(C)C(=S)[S-].CN(C)C(=S)[S-].[Cu+2] ?
Response line: label 1

Prompt line: Call for entry O=[N+]([O-])c1ccc(Oc2ccc(C(F)(F)F)cc2[N+](=O)[O-])cc1 :
Response line: label 0
